Measured activity, negative = inhibition values are reported for all entries that follow.
Target: Histone-lysine N-methyltransferase EHMT2 (Homo sapiens)
Experiment: qHTS Assay for Inhibitors of Histone Lysine Methyltransferase G9a; further: on the % scale 0 is the no-effect control and ±100 the full control effect; nearly all actives have a fitted effect of over 75% in size
Settings: G9a H3K9 monomethylation, AlphaScreen, 2 h; series mostly up to 59 µM
Screen size: about 350,000 compounds; about 31,000 (8.9%) were called active. Roughly 15% stayed inconclusive and do not appear here. This is one part of a sample in which actives are shown more often than they occur.

Below, each entry is followed by its recorded activity, negative = inhibition result.
{"Molecule": "Oc1ccc2ccccc2c1N=Nc1nccs1", "Value": "12.3% [at 0.501 µM] (inactive)"}
{"Molecule": "O=C(CN1CCN(S(=O)(=O)c2cccc(Cl)c2)CC1)N1CCCCC1", "Value": "6.11% [at 12.7 µM] (inactive)"}
{"Molecule": "COc1ccc(NC(=O)CN(C)C(=O)c2cc(C3CC3)nn2-c2ccccc2)cc1", "Value": "-2.32% [at 2.33 µM] (inactive)"}
{"Molecule": "COc1ccc(S(=O)(=O)N2CCOCC2)cc1NC(=O)CSc1cc(C)ccc1C", "Value": "3.19% [at 0.501 µM] (inactive)"}
{"Molecule": "Cc1ccc(C(=O)Nc2ccn(C)n2)cc1", "Value": "0.254% [at 12.7 µM] (inactive)"}
{"Molecule": "N[C@@H](Cc1ccccc1)C(=O)N1CCOCC1", "Value": "11.6% [at 2.33 µM] (inactive)"}

Bench note, Histone-lysine N-methyltransferase EHMT2 (Homo sapiens): entry "CCn1c2ccccc2c2cc(NC(=S)N3CCOCC3)ccc21" , its activity, negative = inhibition = 7.32% [at 12.7 µM] (inactive)
